Here the recorded E1/2 (vs. Ag/AgCl (3M KCl))/mV is given for each entry.
# TEST: Midpoint potential E1/2 by voltammetry vs Ag/AgCl (3M KCl)
# Format: physicochemical
# PROTOCOL_CONDITIONS: pH 5; Example 15 table
Provide a numeric answer, followed by its unit.

# annotated cases, reported E1/2 (vs. Ag/AgCl (3M KCl))/mV shown
MOLECULE	E1/2 (vs. Ag/AgCl (3M KCl))/mV
Oc1cccc2nc3ccccc3nc12 [1-Hydroxyphenazine (1-OHPHZ), 1-Hydroxyphenazine]	−254 mV
NC(=O)c1cccc2nc3ccccc3nc12 [XXV, phenazine-1-carboxamide]	−205 mV
Cn1c2cccc(=O)c-2nc2ccccc21 [Pyocyanin (PYO), Pyocyanin]	−128 mV

Let us examine a further case.
Query block: Which E1/2 (vs. Ag/AgCl (3M KCl))/mV value is on record for O=C(O)c1cccc2nc3ccccc3nc12 [Phenazine-1-carboxylate (PCA), Phenazine-1-carboxylate] ?
Result block: −185 mV
